// provenance: PubChem BioAssay (NCI)

test system: NCI-H522 lung; experiment: NCI-60 one-dose screen, 48 h; conditions: 10 µM unless noted
About 83,000 compounds went through this panel and 20% of them were active in at least one assay; those are over-represented in the sample as a whole. The source made the active and inactive calls. How the source made its calls: active means growth percent below 10; inactive means the rest.
# output must be one of active, inactive

Example cases with answers are listed next.
>>> group("CCC(C)N(CCNc1cc(OC)cc2cccnc12)CC(C)C (stereo unspecified)")
"inactive"
>>> group("Nc1cnc(C(=O)NNc2nc3cc(F)ccc3n3cccc23)cn1")
"inactive"

GET /call?item= CC1(C)CC(=O)C2=C(C1)N(c1ccc(OC(F)(F)F)cc1)C(N)=C(C#N)C2c1ccc(Br)cc1F (stereo unspecified) returns the recorded outcome of this test.
inactive

Assay outcome for COc1ccc(-c2cc(-c3cccnc3)nc3sc4c(=O)[nH]c(-c5ccc(Cl)cc5)nc4c23)cc1OC : what was it?
inactive

Per the records of this test, what outcome belongs to CCC1=C[C@@H]2C[C@]3(C(=O)OC)c4[nH]c5ccccc5c4CC[N@+](CC(=O)Nc4cc5c(cc4OC)N(C)[C@H]4[C@@](O)(C(=O)OC)[C@H](OC(C)=O)[C@]6(CC)C=CCN7CC[C@]54[C@@H]76)(C2)[C@H]13 ?
inactive

For this compound, state the assay outcome: COc1cc(-c2cncn2-c2ccc(-c3nc4ccc(F)cc4s3)cc2)ccc1F
inactive

Answer briefly: the call reported for Cn1cc(-c2csc(-c3c[nH]c4ccccc34)n2)c2cnccc21 in this assay.
active

Recorded test outcome, item COc1cc(/C=C2/C=C(c3ccccc3)N(CCc3ccc(S(N)(=O)=O)cc3)C2=O)cc(OC)c1OC
inactive

// param item: CCOC(=O)C/C(=N\Nc1cc(=O)[nH]c2ccc(Br)cc12)C(=O)OCC ; yields the recorded call
inactive

Which outcome did this test record for the compound Nc1ncnc2c1C(c1ccc(Br)cc1)c1sc3c(F)cccc3c1O2 (stereo unspecified) ?
inactive

Status in this test for COc1ccc(-c2noc(C(=O)O)c2-c2cc(OC)c(OC)c(OC)c2)cc1 ?
inactive

Test call, this compound: Cc1ccc(/C=C2\COc3ccc(O)cc3C2=O)cc1
active

Check the results log: what was the call for CC(C)C1=NOC(=O)C1=Cc1cn(-c2ccccc2)nc1-c1ccc(F)cc1 ?
inactive

====

system: OVCAR-5 ovarian; test: NCI-60 one-dose screen, 48 h (100 = growth as untreated, 0 = no growth, -100 = all killed); settings: 10 µM unless noted
This is part of a sample that, as a whole, favours compounds with a hit. Of some 83,000 tested, about 20% had one in any assay.
Measured growth, listed per entry for reference.
Your answer is read as %, so omit the unit and give the number.

>>> measured_value("CCC(C)N(CCNc1cc(OC)cc2cccnc12)CC(C)C (centres undefined)")
99.6
>>> measured_value("COc1ccc(C/C(C)=C(/c2ccc(OCCN(C)C)cc2)c2ccc(OC(=O)NCc3ccccc3)cc2)cc1")
92
>>> measured_value("OCCn1cc(-c2nc(-c3c[nH]c4ncccc34)cs2)c2ccccc21")
90.5
>>> measured_value("C/C(Cc1ccc(Cl)cc1)=C(\\c1ccc(O)cc1)c1ccc(Cl)cc1")
92.5
>>> measured_value("O=CN1N=C(c2cccc(Nc3ccnc4cc(Cl)ccc34)c2)CC1c1ccccc1 (centres undefined)")
36.3

Query growth on OVCAR-5 ovarian for CS(=O)(=O)c1ccc(-c2cnn3ccc(-c4cccc(S(=O)(=O)C5CC5)c4)nc23)cc1
68.7

Given the entry CCCCCCCC[C@@H]1N[C@@H](C(=O)OC)Cc2c1[nH]c1ccccc21 , what growth was observed with OVCAR-5 ovarian?
89

Item CC(C)(Sc1cc(C(C)(C)C)c(O)c(C(C)(C)C)c1)Sc1cc(C(C)(C)C)c(OC(=O)CCCC(=O)O)c(C(C)(C)C)c1 with OVCAR-5 ovarian - growth?
100

Enter reported growth observed with OVCAR-5 ovarian for CN(C)CCNC(=O)c1cc2c3cc(Cl)ccc3[nH]c2c2ncccc12
32.7

====

tested on: RXF 393 renal; assay: NCI-60 one-dose screen, 48 h (100 = growth as untreated, 0 = no growth, -100 = all killed); settings: 10 µM unless noted
This is part of a sample that, as a whole, favours compounds with a hit. Of some 83,000 tested, about 20% had one in any assay.
measured endpoint: growth (%)
The answer is to be given in %; state only the numeric part.

// solved cases for growth follow
>>> measured_value("COC(=O)Nc1nc2ccc(S(=O)c3ccccc3)cc2[nH]1 (stereo not given)")
107
>>> measured_value("Cc1ccc(-c2nc(N3CCCNCC3)c3oc(-c4ccc(C)cc4)nc3n2)cc1")
80.6
>>> measured_value("CN1C(=O)/C(=C\\c2c(Cl)cccc2Cl)c2ccccc21")
85.1
>>> measured_value("COc1cc(C2CC(c3ccc(Nc4nc(Nc5ccc(Cl)cc5)nc(Nc5ccc(Cl)cc5)n4)cc3)=NN2C(C)=O)cc(OC)c1OC (stereo not given)")
92.4

Kindly consider the entry below.
Please report the recorded growth for O=S(=O)(Nc1cc(Cl)ccc1Cl)c1ccc(-c2cnc(C3CC3)o2)cc1 .
44.8

====

tested on: CAKI-1 renal; assay: NCI-60 one-dose screen, 48 h (100 = growth as untreated, 0 = no growth, -100 = all killed); settings: 10 µM unless noted
The panel holds about 83,000 compounds, 20% with a hit somewhere; the sample as a whole holds those more often.
Documented growth across a set of compounds
State just the number; it will be interpreted in %.

>>> measured_value("O=S(=O)(Nc1ccc(F)cc1F)c1ccc(-c2cnc(C3CC3)o2)cc1")
25
>>> measured_value("C=C(C)[C@@H]1CC[C@]2(C(=O)N3CCOCC3)CC[C@]3(C)[C@H](CC[C@@H]4[C@@]5(C)C/C(=C/c6ccncc6)C(=O)C(C)(C)[C@@H]5CC[C@]43C)[C@@H]12")
56.8
>>> measured_value("CCN(C)S(=O)(=O)Nc1cccc(Nc2ncnc3cc(NC(=O)CCl)ccc23)c1Cl")
-15.4

Need growth, item CCCCn1c(=O)[nH]c(N)c([C@@H]2c3c([nH]c(=O)n(CCCC)c3=O)Oc3ccc4ccccc4c32)c1=O
51.5

Item CCOC(=O)C1=C(N)Oc2c(sc3c(F)cccc23)C1c1ccc(O)cc1 (stereo not drawn) has what recorded growth?
57.6

Requested field: growth. Item: Cc1cc(C)c2c(c1)N(C)c1ncnc(-n3cnc4cc(C)ccc43)c1CC2C (stereo not drawn)
32.8

Could you share which growth value was measured for Nc1ncnc2c1N=C(c1ccc(Br)cc1)CC(c1cccc(Nc3ccnc4cc(C(F)(F)F)ccc34)c1)N2 (stereo not drawn) ?
56.2

GET /values?readout=growth&item= CN1CCN(c2cc(Nc3cc(C4CC4)[nH]n3)nc(Nc3ccc(CC(=O)NCc4cccc(F)c4)cc3)n2)CC1
5.36

====

test system: SW-620 colon; experiment: NCI-60 one-dose screen, 48 h (100 = growth as untreated, 0 = no growth, -100 = all killed); details: 10 µM unless noted
About 83,000 compounds went through this panel and 20% of them were active in at least one assay; those are over-represented in the sample as a whole.
Please respond with satisfied when measured growth is strictly beneath 20%, and with not satisfied in all other cases.

See these solved cases before continuing.
>>> group("C=C(C)[C@@H]1CCC[C@]2(COS(=O)(=O)c3ccc(C)cc3)CC[C@]3(C)[C@@H](CC[C@@H]4[C@@]5(C)CCCNC(C)(C)[C@@H]5CC[C@]43C)[C@@H]12")
"satisfied"
>>> group("COc1c(B(O)O)cccc1-c1nc2c(F)cc3[nH]ncc3c2c2c1CCCC2")
"satisfied"
>>> group("N#Cc1ccc2c(c1)C(=O)c1c-2n(CCCN)c(=O)c2cc([N+](=O)[O-])ccc12")
"satisfied"
>>> group("Cn1cc(-c2nonc2-c2cn(C)c3ccccc23)c2ccccc21")
"not satisfied"
>>> group("C#CCOc1cccc(Nc2ncnc3cc(NC(=O)C=C)ccc23)c1")
"satisfied"

Just wondering, is growth of CN(C)CC1CCC(CN(C)C)C1=O (centres undefined) below 20%?
not satisfied

Please indicate whether the reported growth of COCCn1cc(-c2csc(-c3cn(C)c4ccc(Br)cc34)n2)c2cccnc21 is strictly below 20%.
not satisfied

Does this compound meet the criterion growth < 20%? Cc1cccc(/C=C/c2c(C(=O)/C=C/c3ccccc3)c(C)nc3ccccc23)c1
satisfied

I'd appreciate it if you could check whether Cc1ccccc1/C=C/C(=O)c1cccc(OCCCCOc2cccc(C(=O)/C=C/c3ccccc3C)c2)c1 has growth smaller than 20%.
not satisfied

Hello, is growth of the following compound strictly smaller than 20%? Cc1[nH]c(=O)[nH]c(=O)c1Br
not satisfied

Is it true that growth reported for O=C(Nc1nc2ccc(C(=O)N3CCN(/C=C/c4ccccc4)CC3)cc2s1)c1ccc(NCCc2ccccc2)c([N+](=O)[O-])c1 is less than 20%?
satisfied

Hello, I'm reviewing records and need to know if growth of CS(=O)(=O)Nc1cc(-c2ccc3ncnc(Nc4ccc5c(cnn5Cc5cccc(F)c5)c4)c3c2)cnc1Cl is below 20%. Could you check?
satisfied

Consider the compound COCCOc1cc2ncnc(N3CCN(c4ncc(S(=O)(=O)N5CCCCC5)cn4)CC3)c2cc1OCCOC . Is its growth strictly less than 20%?
not satisfied

Criterion: growth strictly below 20%. Is it met by CC1=C2[C@@H](CC1)[C@]1(C)O[C@@](C(C)C)(C[C@H]1OC(=O)[C@H](C)O)[C@H]2OC(=O)/C=C/c1ccccc1 ?
not satisfied

Is 20% strictly greater than the compound's reported growth? compound: Clc1ccc2c(c1)C(c1c[nH]c3ccccc13)(c1c[nH]c3ccccc13)CCO2
not satisfied
